The following compounds are listed with their measured inhibition at 0.111 µM values.
Molecular target: recombinant human His-ATG7 enzyme (Homo sapiens (Human), UniProt O95352)
Sequence (O95352 whole entry): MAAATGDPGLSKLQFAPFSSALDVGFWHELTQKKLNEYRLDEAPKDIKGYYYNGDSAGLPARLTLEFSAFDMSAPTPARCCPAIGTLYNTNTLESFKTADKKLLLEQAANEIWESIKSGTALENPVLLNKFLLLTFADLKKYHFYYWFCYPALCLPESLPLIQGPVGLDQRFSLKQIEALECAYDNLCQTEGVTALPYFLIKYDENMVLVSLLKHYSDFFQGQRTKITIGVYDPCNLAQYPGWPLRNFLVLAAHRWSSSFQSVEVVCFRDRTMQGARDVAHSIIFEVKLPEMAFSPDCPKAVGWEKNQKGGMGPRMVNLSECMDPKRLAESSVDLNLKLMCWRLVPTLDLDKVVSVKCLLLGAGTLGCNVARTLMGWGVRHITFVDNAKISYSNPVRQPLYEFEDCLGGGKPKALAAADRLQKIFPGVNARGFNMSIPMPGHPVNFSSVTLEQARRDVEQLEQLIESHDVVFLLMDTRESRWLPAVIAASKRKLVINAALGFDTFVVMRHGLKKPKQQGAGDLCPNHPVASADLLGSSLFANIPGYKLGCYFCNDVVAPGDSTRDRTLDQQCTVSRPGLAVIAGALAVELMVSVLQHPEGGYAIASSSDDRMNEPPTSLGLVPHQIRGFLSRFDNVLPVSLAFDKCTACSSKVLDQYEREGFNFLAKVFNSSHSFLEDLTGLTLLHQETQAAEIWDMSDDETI
Assay: ATG7 Enzyme Assay (HTRF/FRET, ATG3-GST and Flag-Gabarap)
Type: biochemical
Conditions: Concentration 0.111 μM; read-out: Percent Inhibition
Return type: number; implicit unit %.

Use these answered entries as a reference point.
>  <Compound>
Nc1ncnc2c1c(SCCO)nn2[C@@H]1O[C@H](COS(N)(=O)=O)[C@@H](O)[C@@H]1F

>  <Assay result>
76

$$$$
>  <Compound>
Nc1ncnc2c1cnn2[C@H]1C[C@H](O)C(COS(N)(=O)=O)O1 (stereo in doubt)

>  <Assay result>
5

$$$$
>  <Compound>
CC(C)Sc1nn([C@@H]2O[C@H](COS(N)(=O)=O)[C@@H](O)[C@@H]2F)c2ncnc(N)c12

>  <Assay result>
84

$$$$
>  <Compound>
Nc1ncnc2c1c(Sc1ccc(Cl)cn1)nn2[C@H]1C[C@H](O)[C@H](COS(N)(=O)=O)O1

>  <Assay result>
59

$$$$
>  <Compound>
CSc1nn([C@@H]2O[C@H](COS(N)(=O)=O)[C@@H](O)[C@H]2O)c2ncnc(N)c12

>  <Assay result>
79

$$$$

Ask: Give its inhibition at 0.111 µM value. Item: `Nc1ncnc2c1c(SCC1CC(F)(F)C1)nn2[C@@H]1O[C@H](COS(N)(=O)=O)[C@@H](O)[C@@H]1F`
Result: 66

Ask: Give its inhibition at 0.111 µM value. Item: `COc1ccc(F)c(Sc2nn([C@H]3C[C@H](O)[C@@H](COS(N)(=O)=O)O3)c3ncnc(N)c23)c1`
Result: 81

---

Target: recombinant human His-ATG7 enzyme (Homo sapiens (Human))
Assay: ATG7 Enzyme Assay (HTRF/FRET, ATG3-GST and Flag-Gabarap)
Assay type: biochemical
Details: Concentration 0.123 μM; read-out: Percent Inhibition
Attribute measured: inhibition at 0.123 µM (%)
Return type: number; implicit unit %.

>  <Compound>
C=CCOc1nn([C@@H]2O[C@H](COS(N)(=O)=O)[C@@H](O)[C@H]2O)c2ncnc(N)c12

>  <inhibition at 0.123 µM [%]>
38

$$$$

Ask: Give its inhibition at 0.123 µM value. Item: `Nc1ncnc2c1c(-c1ccn[nH]1)nn2[C@@H]1O[C@H](COS(N)(=O)=O)[C@@H](O)[C@H]1O`
Result: 10

Ask: Give its inhibition at 0.123 µM value. Item: `COc1nn([C@H]2C[C@H](O)[C@@H](COS(N)(=O)=O)O2)c2ncnc(N)c12`
Result: 35

Ask: Give its inhibition at 0.123 µM value. Item: `CC(C)Sc1nn([C@@H]2O[C@H](COS(N)(=O)=O)[C@@H](O)[C@H]2O)c2ncnc(N)c12`
Result: 87

Ask: Give its inhibition at 0.123 µM value. Item: `Cn1cc(Sc2nn([C@@H]3O[C@H](COS(N)(=O)=O)[C@@H](O)[C@H]3O)c3ncnc(N)c23)cn1`
Result: 83

Ask: Give its inhibition at 0.123 µM value. Item: `CC(C)(C)Sc1nn([C@@H]2O[C@H](COS(N)(=O)=O)[C@@H](O)[C@H]2O)c2ncnc(N)c12`
Result: 82

Ask: Give its inhibition at 0.123 µM value. Item: C[S+]([O-])c1nn([C@@H]2O[C@H](COS(N)(=O)=O)[C@@H](O)[C@H]2O)c2ncnc(N)c12 (stereo partly shown)
Result: 58
